Exercise: for every item that follows, state its recorded βarrestin2 assay % U69,593 at 10 μM.
Target: human KOR (Homo sapiens, UniProt P41145)
Sequence (P41145 whole entry): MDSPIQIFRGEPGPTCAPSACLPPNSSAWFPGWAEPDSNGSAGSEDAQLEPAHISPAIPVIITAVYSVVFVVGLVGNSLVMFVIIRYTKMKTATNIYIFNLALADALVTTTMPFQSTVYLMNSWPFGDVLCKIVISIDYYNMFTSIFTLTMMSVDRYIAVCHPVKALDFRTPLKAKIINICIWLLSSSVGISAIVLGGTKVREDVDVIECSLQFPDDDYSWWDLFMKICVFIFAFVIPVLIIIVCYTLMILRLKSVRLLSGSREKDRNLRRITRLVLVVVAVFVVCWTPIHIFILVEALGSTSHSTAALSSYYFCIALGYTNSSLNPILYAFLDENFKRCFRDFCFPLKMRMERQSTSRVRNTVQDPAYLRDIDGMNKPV
Assay: βarrestin2 recruitment, high content imaging in U2OS-hKOR-βarr2-GFP cells
Type: cell-based

Test item `Ic1ccc(CSc2nnc(-c3ccccn3)n2Cc2cccnc2)cc1` ; human KOR (Homo sapiens, UniProt P41145); reported βarrestin2 assay % U69,593 at 10 μM was 46 ± 3 % U69,593

Test item `Brc1ccc(CSc2nnc(-c3ccccn3)n2Cc2cccnc2)cc1` ; human KOR (Homo sapiens, UniProt P41145); reported βarrestin2 assay % U69,593 at 10 μM was 10 ± 7 % U69,593

Test item `Brc1ccc(CSc2nnc(-c3ccccn3)n2Cc2ccco2)cc1` ; human KOR (Homo sapiens, UniProt P41145); reported βarrestin2 assay % U69,593 at 10 μM was 58 ± 8 % U69,593

Test item `Ic1ccc(CSc2nnc(-c3ccccn3)n2Cc2ccco2)cc1` ; human KOR (Homo sapiens, UniProt P41145); reported βarrestin2 assay % U69,593 at 10 μM was 105 ± 2 % U69,593

Test item `Brc1ccc(CSc2nnc(-c3ccccn3)n2Cc2cccs2)cc1` ; human KOR (Homo sapiens, UniProt P41145); reported βarrestin2 assay % U69,593 at 10 μM was 87 ± 3 % U69,593

Test item `FC(F)(F)c1ccc(Cl)c(CSc2nnc(-c3ccccn3)n2Cc2cccs2)c1` ; human KOR (Homo sapiens, UniProt P41145); reported βarrestin2 assay % U69,593 at 10 μM was 94 ± 8 % U69,593

Test item `FC(F)(F)c1ccc(Cl)c(CSc2nnc(-c3ccccn3)n2Cc2ccco2)c1` ; human KOR (Homo sapiens, UniProt P41145); reported βarrestin2 assay % U69,593 at 10 μM was 29 ± 5 % U69,593

Test item `Ic1ccc(CSc2nnc(-c3ccccn3)n2Cc2cccs2)cc1` ; human KOR (Homo sapiens, UniProt P41145); reported βarrestin2 assay % U69,593 at 10 μM was 94 ± 9 % U69,593

Test item `FC(F)(F)c1ccc(Cl)c(CSc2nnc(-c3ccccn3)n2Cc2cccnc2)c1` ; human KOR (Homo sapiens, UniProt P41145); reported βarrestin2 assay % U69,593 at 10 μM was 38 ± 5 % U69,593

###

Target: human KOR (Homo sapiens)
Experiment: [35S]GTPγS coupling
Format: biochemical
MEASURED_METRIC: G protein assay EMAX, % of max U69,593

Recorded G protein assay EMAX, % of max U69,593 (compound Ic1ccc(CSc2nnc(-c3ccccn3)n2Cc2ccco2)cc1 [2.1] ): 95 ± 1 % of max U69,593

Recorded G protein assay EMAX, % of max U69,593 (compound FC(F)(F)c1ccc(Cl)c(CSc2nnc(-c3ccccn3)n2Cc2cccnc2)c1 [1.3] ): 97 ± 1 % of max U69,593

Recorded G protein assay EMAX, % of max U69,593 (compound Brc1ccc(CSc2nnc(-c3ccccn3)n2Cc2ccco2)cc1 [3.1] ): 91 ± 3 % of max U69,593

Recorded G protein assay EMAX, % of max U69,593 (compound FC(F)(F)c1ccc(Cl)c(CSc2nnc(-c3ccccn3)n2Cc2cccs2)c1 [1.2] ): 98 ± 1 % of max U69,593

Recorded G protein assay EMAX, % of max U69,593 (compound FC(F)(F)c1ccc(Cl)c(CSc2nnc(-c3ccccn3)n2Cc2ccco2)c1 [1.1] ): 98 ± 1 % of max U69,593

Recorded G protein assay EMAX, % of max U69,593 (compound Brc1ccc(CSc2nnc(-c3ccccn3)n2Cc2cccs2)cc1 [3.2] ): 98 ± 1 % of max U69,593

Recorded G protein assay EMAX, % of max U69,593 (compound Ic1ccc(CSc2nnc(-c3ccccn3)n2Cc2cccs2)cc1 [2.2] ): 100 ± 1 % of max U69,593

Recorded G protein assay EMAX, % of max U69,593 (compound Ic1ccc(CSc2nnc(-c3ccccn3)n2Cc2cccnc2)cc1 [2.3] ): 98 ± 3 % of max U69,593

Recorded G protein assay EMAX, % of max U69,593 (compound Brc1ccc(CSc2nnc(-c3ccccn3)n2Cc2cccnc2)cc1 [3.3] ): 94 ± 4 % of max U69,593
